Target: T1, Recombinant Human TNF-α/TNFSF1A (human, UniProt P01375 77-233)
T1 construct: Bought reagent for Biacore; also called huTNFα
T1 sequence (P01375 77-233 limits assumed): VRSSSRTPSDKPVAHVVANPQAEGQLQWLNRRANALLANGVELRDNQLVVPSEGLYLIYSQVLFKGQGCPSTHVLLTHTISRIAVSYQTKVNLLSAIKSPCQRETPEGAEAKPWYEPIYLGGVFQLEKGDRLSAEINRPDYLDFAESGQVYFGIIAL
Test: Biacore SPR
# maps each entry to its Kd

Binder	Kd [pM]
AB217 (antibody, human IgG1, kappa, V domains shown, Parent anti-TNF antibody; also called AB217VH) VH: QVQLVESGGGVVQPGRSLRLSCAASGFTFSSYDMHWVRQAPGKGLEWVAVIWSDGSIKYYADSVKGRFTISRDNSKNTLYLQMNSLRAEDTAVYYCAREVESAMGGFYYNGMDVWGQGTTVTVSS VL: DIQMTQSPSSLSASVGDRVTITCRASQGIRIDLGWYQQKPGKAPKRLIYAASTLQSGVPSRFSGSGSGTEFIFTISSLQPEDFASYYCLQHKSYPLTFGGGTKVEIKR	27.2
AB213 (antibody, human IgG1, kappa, V domains shown, Parent anti-TNF antibody; also called AB213VH) VH: QVQLKESGPGLVAPSQSLSITCTVSGFSLTDYGVNWVRQPPGKGLEWLGMIWGDGSTDYDSTLKSRLSISKDNSKSQIFLKMNSLQTDDTARYYCAREWHHGPVAYWGQGTLVTVSA VL: DIVMTQSHKFMSTTVGDRVSITCKASQAVSSAVAWYQQKPGQSPKLLIYWASTRHTGVPDRFTGSGSVTDFTLTIHNLQAEDLALYYCQQHYSTPFTFGSGTKLEIKR	33.5
AB215 (antibody, human IgG1, kappa, V domains shown, Parent anti-TNF antibody; also called AB215VH) VH: QVQLVESGGGVVQPGRSLRLSCAASGFTFSSYAMHWVRQAPGNGLEWVAFMSYDGSNKYAKDSVKGRFTISRDNSKNTLYLQMNSLRAEDTAVYYCARDRGIAAGGNYYYYGMDVWGQGTTVTVSS VL: EIVLTQSPATLSLSPGERATLSCRASQSVYSYLAWYQQKPGQAPRLLIYDASNRATGIPARFSGSGSGTDFTLTISSLEPEDFAVYYCQQRSNWPPFTFGPGTKVDIKR	157
AB214 (antibody, human IgG1, kappa, V domains shown, Parent anti-TNF antibody; also called AB214VH) VH: EVKLEESGGGLVQPGGSMKLSCVASGFIFSNHWMNWVRQSPEKGLEWVAEIRSKSINSATHYAESVKGRFTISRDDSKSAVYLQMTDLRTEDTGVYYCSRNYYGSTYDYWGQGTTLTVSS VL: DILLTQSPAILSVSPGERVSFSCRASQFVGSSIHWYQQRTNGSPRLLIKYASESMSGIPSRFSGSGSGTDFTLSINTVESEDIADYYCQESHSWPFTFGSGTNLEVKR	107
AB218 (antibody, human IgG1, kappa, V domains shown, Parent anti-TNF antibody; also called AB218VH) VH: EVQLVESGGGLIQPGGSLRLSCAASGFTVSRNYMSWVRQAPGKGLEWVSVIYSGDRTYYADSVKGRFTISRDNSKNTLYLQMNSLRAEDTAVYYCARGEGGFDYWGQGTLVTVSS VL: EIVMTQSPATLSVSPGERATLSCRASQSVSSNLAWYQQKPGQAPRLLIHGASIRATGLPARFSGSGSGTEFTLTISSLQSEDFAVYYCQQYNYWWTFGQGTKVEIKR	28.8
